Data origin: ChEMBL document CHEMBL3352005

pKi: −log10 of the molar value.
Target or system Kappa-type opioid receptor (Cavia porcellus, UniProt P41144); recorded quantity pKi.

Here are 5 compounds together with their reported answers.
- smiles representation: "C[C@@]1(c2ccc(O)cc2)O[C@H]2CO[C@H]3CO[C@@H]1N32"
  experimental result: "< 6.00"
- smiles representation: "C[C@@]1(c2ccccc2O)O[C@@H]2N3[C@H]1O[C@](C)(c1ccccc1O)[C@@H]3O[C@]2(C)c1ccccc1O"
  experimental result: "< 6.00"
- smiles representation: "C[C@@]1(c2ccccc2O)O[C@@H]2N3[C@H](CO[C@H]31)O[C@]2(C)c1ccccc1O"
  experimental result: 8.04
- smiles representation: "C[C@@]1(c2ccccc2O)O[C@H]2CO[C@@H]3N2[C@H]1O[C@]3(C)c1ccccc1O"
  experimental result: "< 6.00"
- smiles representation: "C[C@]1(c2ccc(O)cc2)O[C@H]2CO[C@@H]3N2[C@H]1O[C@]3(C)c1ccc(O)cc1"
  experimental result: "< 6.00"

Quick one: pKi for "C[C@@]1(c2ccc(O)cc2)O[C@H]2CO[C@@H]3N2[C@H]1O[C@]3(C)c1ccc(O)cc1" ?
< 6.00
